Entries annotated with measured MIC
Test system: Candida albicans ATCC 90028
Assay: Antimicrobial MIC assay (CO-ADD) against C. albicans
Assay type: cell-based
Conditions: Candida albicans, ATCC90028, read-out: MIC C.a., Candida albicans ATCC 90028; mean (n = 2)
From the text: Antimicrobial evaluation against S. aureus (MRSA) (ATCC 43300), E. coli (ATCC 25922), K. pneumoniae (ATCC 700603), A. baumannii (ATCC 19606), C. albicans (ATCC 90028), and C. neoformans (ATCC 208821) was undertaken at the Community for Open Antimicrobial Drug Discovery at The University of Queensland (Australia) according to their standard protocols as reported previously.
Numeric only. Scale: µM

// MIC value for C[C@H](CCC(=O)NCCCNCCCCCCCCNCCCNC(=O)CC[C@@H](C)[C@H]1CC[C@H]2[C@@H]3[C@@H](O)C[C@@H]4C[C@H](O)CC[C@]4(C)[C@H]3CC[C@]12C)[C@H]1CC[C@H]2[C@@H]3[C@@H](O)C[C@@H]4C[C@H](O)CC[C@]4(C)[C@H]3CC[C@]12C.O=C(O)C(F)(F)F.O=C(O)C(F)(F)F [Compound 8d] : 26

// MIC value for C[C@H](CCC(=O)NCCCNCCCCCCNCCCNC(=O)CC[C@@H](C)[C@H]1CC[C@H]2[C@@H]3[C@@H](O)C[C@@H]4C[C@H](O)CC[C@]4(C)[C@H]3CC[C@]12C)[C@H]1CC[C@H]2[C@@H]3[C@@H](O)C[C@@H]4C[C@H](O)CC[C@]4(C)[C@H]3CC[C@]12C.O=C(O)C(F)(F)F.O=C(O)C(F)(F)F [Compound 8b] : 27
